# GI50 per entry
# Tested on: OVCAR-8
# Assay method text: NCI tumour cell line growth inhibition, 48 h
Activity calls are given as the source filed them. Cut-off read from the data, not from the text of the source: active = GI50 up to about 1.1 µM and inactive = higher.

COC(=O)C(NC(=O)OC(C)(C)C)P(=O)(OC)OC (centres undefined) :: > 100 µM (inactive)
O=C(O)C1(c2ccccc2)CCCNCC1 (centres undefined) :: > 100 µM (inactive)
C=CCCCCCCCC(O)C1C[C@H](O)C(CCCCC)O1 (some centres undefined) :: 19.9 µM (inactive)
CC[C@@H]1CC[C@@H]2[C@H](CC[C@]3(C)[C@@H](OS(=O)(=O)c4ccc(C)cc4)CC[C@@H]23)[C@H]1CO :: > 100 µM (inactive)
NS(=O)(=O)c1nnc(NSc2ccc([N+](=O)[O-])cc2)s1 :: > 100 µM (inactive)

Continue with the next compound.
Incoming: Item under review: NC(=S)N/N=C1\C(=O)N(c2cccc([N+](=O)[O-])c2)C(=O)C1C(=O)Nc1cccc([N+](=O)[O-])c1 (centres undefined) . Reported GI50?
Outgoing: > 100 µM (inactive)

###

# System: UO-31
# Assay method text: NCI tumour cell line growth inhibition, 48 h
Activity calls are given as the source filed them. Cut-off read from the data, not from the text of the source: active = GI50 up to about 1.1 µM and inactive = higher.
Please reply with one of these outcomes: active, inactive

COc1cc2c(cc1C)NC(=O)/C2=C/c1c(Cl)n(-c2ccccc2)c2ccccc12 :: inactive
Cc1cn(C2C=CC(COP(=O)(OCC3=CC(=O)c4ccccc4C3=O)N(C)CCCCCl)O2)c(=O)[nH]c1=O (stereo not given) :: inactive
CC(C)=CCC/C(C)=C/CC/C(C)=C/CSc1ccc(Cl)cc1C(=O)O :: inactive
Cc1nc2c(nc1Cl)nc(Oc1ccc(Cl)cc1)c1ccccc12 :: inactive
Nc1ccc2c(c1)C1=NNC(=O)CC1C2 (stereo not given) :: inactive
CC(=O)CCn1ncc(Cl)c(Cl)c1=O :: inactive

Incoming: Check the results log: what was the call for `c1c[nH]c(CN2CCN(Cc3ncc[nH]3)CC2)n1` ?
Outgoing: inactive

Incoming: Next record, please: CC(C)C(NCc1c2ccccc2[n+]([O-])c2ccccc12)C(=O)O (stereo not given)
Outgoing: inactive

Incoming: Next record, please: `O=c1c2cnccc2cc2c3ccccc3ccn12`
Outgoing: inactive

Incoming: Next record, please: `COc1ccc2nc3ccccc3c(NCCCCN(C)CCCl)c2c1`
Outgoing: active

Incoming: Next record, please: `CN(C)c1ccc(/C=C2\N=C(c3ccccc3)N(c3nc4c(Cl)cc(Cl)cc4s3)C2=O)cc1`
Outgoing: inactive

Incoming: Next record, please: CC(C)(C)OC(=O)C(C1NC(C(=O)O)C(C)(C)S1)N1C(=O)c2ccccc2C1=O (stereo not given)
Outgoing: inactive

Incoming: Next record, please: COc1cc2c(cc1OC)C(=O)C1(C2)[C@H](c2ccccc2)C2C(=O)c3cc(OC)c(OC)cc3C2[C@H]1c1ccccc1 (stereo not given in full)
Outgoing: inactive

Incoming: Next record, please: CC(=O)NC1=C(C)C(=O)c2c(nc3n2CCC3OC(=O)c2ccccc2)C1=O (stereo not given)
Outgoing: inactive

Incoming: Next record, please: `Clc1ccc(-c2cn3c(nc4ccccc43)c(-c3ccccc3)n2)cc1`
Outgoing: inactive

###

# GI50 per entry
# Test system: NCI-H460
# Assay method text: NCI tumour cell line growth inhibition, 48 h
The source made the active and inactive calls. Cut-off read from the data, not from the text of the source: active = GI50 up to about 1.1 µM and inactive = higher.

NS(=O)(=O)c1nnc(NSc2ccc([N+](=O)[O-])cc2)s1 :: > 100 µM (inactive)
O=C1C2c3[nH]c4ccccc4c3C3CCSCC3C2C(=O)N1c1ccccc1 (stereo not given) :: > 100 µM (inactive)
Cn1c(=O)cc(N2CCCC2)[nH]c1=O :: > 100 µM (inactive)

Incoming: Item under review: `CC(C)=CCOc1cc(NC(=S)c2ccsc2C)ccc1Cl` . Reported GI50?
Outgoing: 12.4 µM (inactive)

Incoming: Next record, please: Nc1ccc2c(c1)C1=NNC(=O)CC1C2 (stereo not given)
Outgoing: > 100 µM (inactive)

Incoming: Next record, please: `COc1ccc(C(=O)c2sc(N(C)C)nc2-c2ccccc2)cc1`
Outgoing: 20.2 µM (inactive)

###

# System: KM-20L2
# Assay method text: NCI tumour cell line growth inhibition, 48 h
Active and inactive are the calls of the source. Cut-off read from the data, not from the text of the source: active = GI50 up to about 1.1 µM and inactive = higher.
Please reply with one of these outcomes: YES (active), NO (inactive)

COc1ccc2nc3ccccc3c(NCCCCN(C)CCCl)c2c1 :: YES
COc1cc([C@@H]2OCC3C(c4ccc5c(c4)OCO5)OCC32)cc(OC)c1OC (stereo not given in full) :: NO
CC(C)=CCC/C(C)=C/CC/C(C)=C/Cc1c(O)c2ccccc2oc1=O :: NO
CCOC(=O)CC(NCc1ccc(/N=C/c2nc3ccc(C(F)(F)F)cc3nc2-c2ccccc2)cc1)C(=O)OCC (stereo not given) :: NO

Please find the next compound below.
Incoming: Check the results log: what was the call for `C/C(COc1ccccc1)=N\NC(N)=S` ?
Outgoing: NO

###

# System: SF-295
# Assay method text: NCI tumour cell line growth inhibition, 48 h
Activity calls are given as the source filed them. Rule as the data show it: active = GI50 up to about 1.1 µM and inactive = higher.
Please reply with one of these outcomes: true (1) (active), false (0) (inactive)

Use these answered entries as a reference point.
COc1cc(C2SC(=N)Nc3c2c(C)nn3C(=O)Cc2ccccc2)cc(OC)c1OC (stereo unspecified) :: false (0)
O=S(=O)(O)c1cc(O)c(/N=N\C2S(=O)(=O)OCCOS2(=O)=O)c2ccccc12 :: false (0)
O=S1(=O)c2ccccc2N(O)C2=NCCN21 :: false (0)
COc1cc([C@@H]2OCC3C(c4ccc5c(c4)OCO5)OCC32)cc(OC)c1OC (stereo partly specified) :: false (0)
NC(=S)N/N=C1\C(=O)N(c2cccc([N+](=O)[O-])c2)C(=O)C1C(=O)Nc1cccc([N+](=O)[O-])c1 (stereo unspecified) :: false (0)
Cc1nc2cc3nc4ccccc4c(O)c3cc2s1 :: false (0)

Incoming: Check the results log: what was the call for `CN(Cc1cnc2nc(N)nc(N)c2n1)c1ccc(C(=O)NCCCS(=O)(=O)O)cc1` ?
Outgoing: false (0)

Incoming: Next record, please: `CN(C)C(=S)/N=c1\ssc(=S)n1-c1ccccc1`
Outgoing: false (0)

Incoming: Next record, please: CC1OC(OC2C(OC(=O)[C@]34CCC(C)(C)CC3C3=CCC5[C@@]6(C)C[C@H](O)[C@H](OC7OC(COC8OC(CO)C(O)C(O)C8O)C(O)C(O)C7O)[C@@](C)(C(=O)O)C6CC[C@@]5(C)C3(C)CC4)OCC(O)C2O)C(O)C(O)C1OC1OCC(O)C(O)C1O (stereo partly specified)
Outgoing: false (0)

Incoming: Next record, please: COC(=O)C(NC(=O)OC(C)(C)C)P(=O)(OC)OC (stereo unspecified)
Outgoing: false (0)

Incoming: Next record, please: C=CCCCCCCCC(O)C1C[C@H](O)C(CCCCC)O1 (stereo partly specified)
Outgoing: false (0)

Incoming: Next record, please: `CCN(CC)CCC(=O)/C=C/c1ccccc1`
Outgoing: false (0)

Incoming: Next record, please: `COc1c(Cl)cc(NC(=S)C#N)cc1Cl`
Outgoing: false (0)

Incoming: Next record, please: `Clc1sc(Cl)c2c1[C@H](Br)C[C@@H]2Cl`
Outgoing: false (0)

Incoming: Next record, please: C[C@]12CCc3nonc3C1CC[C@@H]1C2CC[C@@]2(C)C1CC[C@@H]2O (stereo partly specified)
Outgoing: false (0)

Incoming: Next record, please: `O=C(O)c1nccnc1C(=O)O`
Outgoing: false (0)

Incoming: Next record, please: `OCn1nc2c(C3OCCO3)cc3ccccc3n2c1=S`
Outgoing: false (0)

Incoming: Next record, please: CCc1c(CNc2ccc(C(=O)NC(CC(=O)O)C(=O)O)cc2)ccc2nc(N)nc(N)c12 (stereo unspecified)
Outgoing: true (1)

Incoming: Next record, please: `Cc1nc2ccccc2c(=O)n1CC(=O)O`
Outgoing: false (0)

Incoming: Next record, please: COc1cccc2c1OC(c1ccc(C#N)cc1)C([N+](=O)[O-])=C2 (stereo unspecified)
Outgoing: false (0)

Incoming: Next record, please: `O=c1ccc(=O)c2c1c1[nH]c3ccccc3c1c1c(=O)c3ccccc3c(=O)c21`
Outgoing: false (0)

###

# Test system: KM12
# Assay method text: NCI tumour cell line growth inhibition, 48 h
Active and inactive are the calls of the source. Rule as the data show it: active = GI50 up to about 1.1 µM and inactive = higher.
Please reply with one of these outcomes: Y for active, N for inactive

Incoming: Check the results log: what was the call for `CN(C)c1ccc(/C=C2\N=C(c3ccccc3)N(c3nc4c(Cl)cc(Cl)cc4s3)C2=O)cc1` ?
Outgoing: N

Incoming: Next record, please: `O=[N+]([O-])c1ccc(NSc2ccccc2)cc1`
Outgoing: N

Incoming: Next record, please: CC(C)C(NCc1c2ccccc2[n+]([O-])c2ccccc12)C(=O)O (stereo not drawn)
Outgoing: N

Incoming: Next record, please: `CC[C@@]1(O)C(=O)OCc2c1cc1n(c2=O)Cc2c-1nc1ccc(O)cc1c2[Si](C)(C)C(C)(C)C`
Outgoing: Y

Incoming: Next record, please: `CCN(CC)CCN1c2ccccc2Sc2ccc3ccccc3c21`
Outgoing: N

Incoming: Next record, please: `Cc1n[nH]c(=O)n1-n1cccc1`
Outgoing: N
